Values from PubChem BioAssay (NCI)

assay_summary: NCI Yeast Anticancer Drug Screen. Data for the mec2-1 strain (AID 157)
conditions: S. cerevisiae mec2-1 strain, at 50.0 µM
Protocol: Growth inhibition of yeast strains with defined genetic alterations is measured as a screen for potential anti-cancer activity. Selected strains with alterations in DNA damage repair or cell cycle control were exposed to compounds and growth inhibition was measured relative to vehicle treated controls. The strain used in this assay is mec2-1
About 79,000 compounds went through this panel and 15% of them were active in at least one assay; those are over-represented in the sample as a whole. The source made the active and inactive calls. Cut-off read from the data, not from the text of the source: active = growth inhibition above about 70%; inactive = the rest.
Possible outcomes: YES (active), NO (inactive)

> print(dat)
                                    compound  assigned.category
 1                              C[C@@H](O)CO                 NO
 2  C=C(Cl)C(=C)CCC(Cl)C(C)C (stereo not drawn)                 NO
 3                                N#CCCCCCCl                 NO
 4  O=C1N(CCN2CCC3(CC2)OCCO3)CCN1c1cc(Cl)cc(Cl)c1                 NO
 5            Cc1ncc([N+](=O)[O-])n1Cc1nncs1                 NO
 6  COc1cccc(C2CC(C)(O)Oc3cc4c(cc32)OCO4)c1O (stereo not drawn)                 NO
 7              CN(N=Nc1ccc(C#N)cc1)C(C)(C)C                 NO
 8                C=CCc1c(O)c2ccccc2[nH]c1=O                 NO
 9  N#CC(C(=O)CCCC(=O)Nc1ccc(Cl)cc1Cl)c1ccccc1 (stereo not drawn)                 NO
10                        CCCCOC(=O)N1CCCCC1                 NO
11       O=C1C(c2ccccc2)=C(O)c2cccc3cccc1c23                 NO
12  C/C(CC(O)(C(F)(F)Cl)C(F)(F)Cl)=N\NC(N)=S                 NO
13                           CC(C)CCNCCCCCCl                 NO
14                         Cc1ccccc1NC(=S)NN                 NO
15  CCC1(c2ccccc2)SCC(=O)NC1=O (stereo not drawn)                 NO
16  O=C(O)C1C2C=CC(O2)C1C(=O)NCc1ccncc1 (stereo not drawn)                 NO
17                Cn1nnc(CC[N+]2(C)CCOCC2)n1                 NO
18                            C=C=CON1CCCCC1                 NO
19  OC(C/C(=N\Nc1ccccc1)c1ccc(Br)cc1)(C(F)(F)F)C(F)(F)F                YES
20  CC1OC(O)CC(NC(=O)C(F)(F)F)C1O (stereo not drawn)                 NO
21                  COc1cccc(-c2nsc(=O)o2)c1                 NO
22  C=C(C)C(=O)N1c2ccc(OC)cc2CC1C(=O)OCC (stereo not drawn)                 NO
23                 CN(C)CCCNC(=O)/C=C\C(=O)O                 NO
24  COc1cc(C(=O)Nc2ccc(S(=O)(=O)Nc3nc(C)cc(C)n3)cc2)cc(OC)c1OC                 NO
25     COc1ccc2oc(=N)c(C(=O)NCc3ccccc3)cc2c1                 NO
26        Cc1ccc([N+](=O)[O-])c(P(=O)(O)O)c1                 NO
27                   COC(=O)/C=C(/N)CC(=O)OC                 NO
28             CC(C)(C)c1ccc(OCCCCl)c(CCl)c1                 NO
